# condition_notes: in acetic acid, 306.25 K
property_label: solubility (mole fraction)

| mol | property_label | value_measured |
| --- | --- | --- |
| O=C1CCCC(=O)O1 | solubility (mole fraction) | 0.557 |

====

# condition_notes: in acetic acid, 294.25 K
property_label: solubility (mole fraction)

| mol | property_label | value_measured |
| --- | --- | --- |
| O=C1CCCC(=O)O1 | solubility (mole fraction) | 0.27 |

====

# condition_notes: in tetrachloromethane, 320.45 K
property_label: solubility (mole fraction)

| mol | value_measured |
| --- | --- |
| O=C1CCCC(=O)O1 | 0.00639 |

====

# condition_notes: in tetrachloromethane, 300.25 K

| mol | solubility (mole fraction) |
| --- | --- |
| O=C1CCCC(=O)O1 | 0.00268 |

====

# condition_notes: in tetrachloromethane, 318.25 K
property_label: solubility (mole fraction)

| mol | value_measured |
| --- | --- |
| O=C1CCCC(=O)O1 | 0.00619 |

====

# condition_notes: in acetyl acetate, 293.05 K

| mol | solubility (mole fraction) |
| --- | --- |
| O=C1CCCC(=O)O1 | 0.388 |

====

# condition_notes: in tetrachloromethane, 291.15 K

| mol | solubility (mole fraction) |
| --- | --- |
| O=C1CCCC(=O)O1 | 0.00141 |

====

# condition_notes: in acetic acid, 284.55 K

| mol | solubility (mole fraction) |
| --- | --- |
| O=C1CCCC(=O)O1 | 0.119 |

====

# condition_notes: in acetyl acetate, 285.45 K

| mol | solubility (mole fraction) |
| --- | --- |
| O=C1CCCC(=O)O1 | 0.259 |

====

# condition_notes: in acetyl acetate, 296.95 K
property_label: solubility (mole fraction)

| mol | property_label | value_measured |
| --- | --- | --- |
| O=C1CCCC(=O)O1 | solubility (mole fraction) | 0.437 |

====

# condition_notes: in tetrachloromethane, 288.05 K
property_label: solubility (mole fraction)

| mol | property_label | value_measured |
| --- | --- | --- |
| O=C1CCCC(=O)O1 | solubility (mole fraction) | 0.00097 |

====

# condition_notes: in acetyl acetate, 290.55 K

| mol | solubility (mole fraction) |
| --- | --- |
| O=C1CCCC(=O)O1 | 0.342 |

====

# condition_notes: in tetrachloromethane, 315.55 K

| mol | solubility (mole fraction) |
| --- | --- |
| O=C1CCCC(=O)O1 | 0.00586 |

====

# condition_notes: in acetic acid, 296.65 K
property_label: solubility (mole fraction)

| mol | property_label | value_measured |
| --- | --- | --- |
| O=C1CCCC(=O)O1 | solubility (mole fraction) | 0.323 |

====

# condition_notes: in tetrachloromethane, 293.95 K

| mol | solubility (mole fraction) |
| --- | --- |
| O=C1CCCC(=O)O1 | 0.00182 |

====

# condition_notes: in acetic acid, 282.25 K

| mol | solubility (mole fraction) |
| --- | --- |
| O=C1CCCC(=O)O1 | 0.0967 |

====

# condition_notes: in acetic acid, 287.05 K
property_label: solubility (mole fraction)

| mol | property_label | value_measured |
| --- | --- | --- |
| O=C1CCCC(=O)O1 | solubility (mole fraction) | 0.152 |

====

# condition_notes: in tetrachloromethane, 295.95 K

| mol | solubility (mole fraction) |
| --- | --- |
| O=C1CCCC(=O)O1 | 0.00225 |

====

# condition_notes: in acetic acid, 291.95 K
property_label: solubility (mole fraction)

| mol | value_measured |
| --- | --- |
| O=C1CCCC(=O)O1 | 0.223 |

====

# condition_notes: in tetrachloromethane, 282.25 K

| mol | solubility (mole fraction) |
| --- | --- |
| O=C1CCCC(=O)O1 | 0.00064 |

====

# condition_notes: in acetic acid, 289.55 K

| mol | solubility (mole fraction) |
| --- | --- |
| O=C1CCCC(=O)O1 | 0.183 |

====

# condition_notes: in acetyl acetate, 278.45 K

| mol | solubility (mole fraction) |
| --- | --- |
| O=C1CCCC(=O)O1 | 0.153 |

====

# condition_notes: in acetyl acetate, 300.25 K
property_label: solubility (mole fraction)

| mol | property_label | value_measured |
| --- | --- | --- |
| O=C1CCCC(=O)O1 | solubility (mole fraction) | 0.502 |

====

# condition_notes: in acetic acid, 299.15 K
property_label: solubility (mole fraction)

| mol | property_label | value_measured |
| --- | --- | --- |
| O=C1CCCC(=O)O1 | solubility (mole fraction) | 0.376 |
